- tested_system: UniProtKB P46098
- Sequence (P46098 whole entry): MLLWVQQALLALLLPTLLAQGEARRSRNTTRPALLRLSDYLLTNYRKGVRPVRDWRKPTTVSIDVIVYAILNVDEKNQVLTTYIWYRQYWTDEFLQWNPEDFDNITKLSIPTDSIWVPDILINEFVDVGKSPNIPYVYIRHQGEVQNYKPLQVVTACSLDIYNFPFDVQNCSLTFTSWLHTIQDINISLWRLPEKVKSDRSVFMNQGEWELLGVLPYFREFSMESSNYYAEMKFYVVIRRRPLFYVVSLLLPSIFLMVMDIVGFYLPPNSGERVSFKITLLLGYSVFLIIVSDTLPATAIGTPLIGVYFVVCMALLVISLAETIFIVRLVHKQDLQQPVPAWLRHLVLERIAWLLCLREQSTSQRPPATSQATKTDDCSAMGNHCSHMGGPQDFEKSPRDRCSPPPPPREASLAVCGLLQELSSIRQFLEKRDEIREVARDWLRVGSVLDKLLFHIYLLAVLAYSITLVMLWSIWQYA
- assay: Inhibition of 5HT3 receptor (unknown origin)
quantity: pIC50
pIC50 (log units): -log10 of the concentration in mol/L.

Exercise: Request the reported pIC50 associated with "CN(C)CCCn1c(=O)c(C#N)c(-c2ccccc2)c2ccccc21"
Solution: 4.72

====

- assay: Efflux ratio of the compound in human Caco2 cells
- Assay type: ADME, cell-based
- condition_label: Caco-2
# Lookup of reported efflux ratio keyed by entry
The answer should be a number; do not append a unit.

In the examples that follow, each entry is paired with its recorded efflux ratio.
compound	efflux ratio
O=c1cc(-c2ccccc2)c2ccccc2n1CC1CNCCO1 (stereo not given)	1
O=c1cc(-c2ccccc2)c2ccccc2n1CC1CN2CCC1CC2 (stereo not given)	6.9
O=c1cc(-c2ccccc2)c2ccccc2n1CC1CN2CCC1(F)CC2 (racemic)	0.6

Query compound follows.
Exercise: Request the reported efflux ratio associated with "c1cnc2c(c1)C[C@@]1(CN3CCC1CC3)O2"
Solution: 0.9

====

- tested_system: Neuronal acetylcholine receptor subunit alpha-7 (Rattus norvegicus) (UniProt Q05941)
- Sequence (Q05941 whole entry): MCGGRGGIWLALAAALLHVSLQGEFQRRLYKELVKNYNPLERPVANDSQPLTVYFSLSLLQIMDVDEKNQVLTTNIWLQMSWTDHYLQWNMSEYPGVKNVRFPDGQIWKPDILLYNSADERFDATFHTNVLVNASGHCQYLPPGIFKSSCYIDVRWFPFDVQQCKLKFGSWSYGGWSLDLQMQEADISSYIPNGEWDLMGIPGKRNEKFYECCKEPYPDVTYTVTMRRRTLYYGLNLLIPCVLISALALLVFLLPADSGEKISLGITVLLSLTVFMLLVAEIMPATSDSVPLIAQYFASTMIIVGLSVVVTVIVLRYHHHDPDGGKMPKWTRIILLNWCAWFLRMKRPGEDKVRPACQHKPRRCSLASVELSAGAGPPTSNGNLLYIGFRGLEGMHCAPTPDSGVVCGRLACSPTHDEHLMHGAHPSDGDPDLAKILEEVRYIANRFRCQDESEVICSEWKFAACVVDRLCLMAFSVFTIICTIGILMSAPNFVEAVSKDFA
- assay: Agonist activity at rat alpha7 nAChR expressed in HEK293 cells assessed as peak intensity of acetylcholine-induced response by whole-cell patch clamp electrophysiology paradigm assay relative to control
- Assay type: cell-based
# Lookup of reported Emax keyed by entry
# unit: % | format: bare number

compound	tested_system	Emax [%]
O=c1cc(-c2ccccc2)c2ccccc2n1CC1CCCNC1 (configuration not stated)	Neuronal acetylcholine receptor subunit alpha-7 (Rattus norvegicus) (UniProt Q05941)	60
O=c1cc(-c2ccccc2)c2ccccc2n1CC1CNCCO1 (configuration not stated)	Neuronal acetylcholine receptor subunit alpha-7 (Rattus norvegicus) (UniProt Q05941)	34
CC(=O)NCc1cccc(-c2cc(=O)n(CC3CN4CCC3CC4)c3ccccc23)c1 (racemic)	Neuronal acetylcholine receptor subunit alpha-7 (Rattus norvegicus) (UniProt Q05941)	21
CN(C)CCCn1c(=O)c(C#N)c(-c2ccccc2)c2ccccc21	Neuronal acetylcholine receptor subunit alpha-7 (Rattus norvegicus) (UniProt Q05941)	15
CS(=O)(=O)NCc1cccc(-c2cc(=O)n(CC3CN4CCC3CC4)c3ccccc23)c1 (racemic)	Neuronal acetylcholine receptor subunit alpha-7 (Rattus norvegicus) (UniProt Q05941)	21

Exercise: Request the reported Emax associated with O=c1cc(-c2cccc3[nH]ccc23)c2ccccc2n1CC1CN2CCC1CC2 (racemic)
Solution: 62

Exercise: Follow-up entry: O=c1cc(-c2ccccc2)c2ccccc2n1CC1CN2CCC1CC2 (configuration not stated)
Solution: 60

====

- tested_system: Neuronal acetylcholine receptor; alpha4/beta2 (Homo sapiens, UniProt P17787+P43681)
- Sequence (P17787 whole entry): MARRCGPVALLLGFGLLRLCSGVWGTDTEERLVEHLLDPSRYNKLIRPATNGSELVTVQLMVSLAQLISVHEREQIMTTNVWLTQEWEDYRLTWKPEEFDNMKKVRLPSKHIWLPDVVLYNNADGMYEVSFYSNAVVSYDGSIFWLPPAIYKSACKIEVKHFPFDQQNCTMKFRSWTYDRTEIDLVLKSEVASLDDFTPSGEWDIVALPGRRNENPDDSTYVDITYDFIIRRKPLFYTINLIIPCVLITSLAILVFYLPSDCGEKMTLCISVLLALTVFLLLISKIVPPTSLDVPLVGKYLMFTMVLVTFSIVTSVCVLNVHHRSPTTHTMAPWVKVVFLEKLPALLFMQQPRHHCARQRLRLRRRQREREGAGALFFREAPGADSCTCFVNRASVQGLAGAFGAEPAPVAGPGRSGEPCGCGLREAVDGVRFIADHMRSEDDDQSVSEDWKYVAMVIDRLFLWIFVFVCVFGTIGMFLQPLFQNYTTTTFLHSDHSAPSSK
- Sequence (P43681 whole entry): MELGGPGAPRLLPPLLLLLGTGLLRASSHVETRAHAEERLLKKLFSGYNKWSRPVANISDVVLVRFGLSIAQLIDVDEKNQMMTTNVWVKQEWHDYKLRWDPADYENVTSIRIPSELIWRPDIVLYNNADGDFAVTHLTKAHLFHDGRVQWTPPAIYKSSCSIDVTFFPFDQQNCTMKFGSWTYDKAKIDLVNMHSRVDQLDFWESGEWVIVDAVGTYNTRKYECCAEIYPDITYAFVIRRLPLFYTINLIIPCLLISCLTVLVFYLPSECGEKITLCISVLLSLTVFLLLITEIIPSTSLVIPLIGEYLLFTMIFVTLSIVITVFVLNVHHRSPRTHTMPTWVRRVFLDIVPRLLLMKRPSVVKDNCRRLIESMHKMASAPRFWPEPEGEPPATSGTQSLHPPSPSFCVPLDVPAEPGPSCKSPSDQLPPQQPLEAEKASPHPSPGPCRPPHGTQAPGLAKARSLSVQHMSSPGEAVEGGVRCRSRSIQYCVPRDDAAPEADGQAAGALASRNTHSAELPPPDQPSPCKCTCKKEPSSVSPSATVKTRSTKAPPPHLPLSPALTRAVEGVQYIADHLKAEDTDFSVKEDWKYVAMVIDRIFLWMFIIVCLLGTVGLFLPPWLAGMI
- assay: Agonist activity at alpha4beta2 nAChR (unknown origin)
quantity: EC50

Exercise: Request the reported EC50 associated with "CN(C)CCCn1c(=O)c(C#N)c(-c2ccccc2)c2ccccc21"
Solution: > 100 µM

====

- assay: Permeability of the compound at pH 7.4 by PAMPA
- Format: ADME
- condition_label: read-out: permeability
quantity: Papp (×10⁻⁶ cm/s)
# unit: ×10⁻⁶ cm/s | format: bare number

In the examples that follow, each entry is paired with its recorded Papp.
compound	Papp [×10⁻⁶ cm/s]
O=c1cc(-c2ccccc2)c2ccccc2n1CC1CN2CCC1(F)CC2 (racemic)	38
c1cnc2c(c1)C[C@@]1(CN3CCC1CC3)O2	51
CC(=O)NCc1cccc(-c2cc(=O)n(CC3CN4CCC3CC4)c3ccccc23)c1 (racemic)	0.1
O=c1cc(-c2ccccc2)c2ccccc2n1CC1CNCCO1 (stereo unspecified)	55
O=c1cc(-c2cccc3[nH]ccc23)c2ccccc2n1CC1CN2CCC1CC2 (racemic)	40

Exercise: Request the reported Papp associated with O=c1cc(-c2ccccc2)c2ccccc2n1CC1CN2CCC1CC2 (stereo unspecified)
Solution: 90
